test system: LOX IMVI melanoma; test: NCI tumour cell line growth inhibition, 48 h
MEASUREMENT LABEL: log10 of TGI (log10 of the value in µM)

> print(dat)
                                   compound  target.or.test.system  quantitative.readout
1  CN1CC=C(c2cc(NC(=O)Nc3ccc(Oc4ccnc(NC(=O)C5CC5)c4)c(F)c3)cc(C(F)(F)F)c2)CC1      LOX IMVI melanoma                 -0.19
2     COc1cc(OC)cc(Oc2cnc3cc(N)cc(N)c3n2)c1      LOX IMVI melanoma                  1.38
3  Nn1c(Nc2ccc(S(N)(=O)=O)cc2)nnc(/C=C/c2c(O)ccc3ccccc23)c1=O      LOX IMVI melanoma                  1.43
4  O=C(CCCn1c2c(sc3ccccc32)c(=O)n2nnc(-c3ccccc3)c12)NCCc1cnc[nH]1      LOX IMVI melanoma                  0.40
5  COc1ccc2c(c1)Oc1cc(O)ccc1[C@H]2c1ccccc1C(=O)NC(C)c1ccccc1 (some centres not stated)      LOX IMVI melanoma                  1.50
6             O=C1CC(/C=C/c2ccco2)=C(O)C1=O      LOX IMVI melanoma                  1.40
7  COC(=O)CNC(=O)C(Cc1ccccc1)NC(=O)c1ccc(-c2ccc(Cl)cc2Cl)o1 (configuration not stated)      LOX IMVI melanoma                  1.84
8  CC(=O)c1ccccc1NC(=O)C(=O)C(C(=O)c1ccc2ccccc2c1)C1OC(=O)c2ccccc21 (configuration not stated)      LOX IMVI melanoma                  1.42
9  Cc1ccc(S(=O)(=O)N2CCC[C@@H]2C(=O)O[C@@H]2CCC3CC=CC32)cc1 (some centres not stated)      LOX IMVI melanoma                  1.59
